target.or.system: α2A (adrenergic receptor) (Homo sapiens, UniProt P08913)
Sequence (P08913 whole entry): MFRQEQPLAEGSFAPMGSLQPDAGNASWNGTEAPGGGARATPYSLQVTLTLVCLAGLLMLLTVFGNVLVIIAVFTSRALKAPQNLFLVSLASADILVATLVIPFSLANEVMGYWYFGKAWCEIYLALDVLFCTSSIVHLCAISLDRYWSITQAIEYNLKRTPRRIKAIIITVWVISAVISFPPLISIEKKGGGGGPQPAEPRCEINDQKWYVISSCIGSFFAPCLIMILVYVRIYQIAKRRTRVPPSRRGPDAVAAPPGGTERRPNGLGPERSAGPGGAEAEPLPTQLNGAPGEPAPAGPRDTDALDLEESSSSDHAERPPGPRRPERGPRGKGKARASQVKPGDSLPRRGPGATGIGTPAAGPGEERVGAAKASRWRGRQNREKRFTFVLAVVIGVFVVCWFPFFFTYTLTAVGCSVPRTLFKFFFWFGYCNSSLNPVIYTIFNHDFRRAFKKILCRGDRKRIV
pIC50: −log10 of the molar value.
outcome.measure: pIC50

# compound, target.or.system, outcome.measure, test.value
data = [
    ("COc1cc(C(F)(F)F)c(OC)cc1[C@@H]1CCCNC1 [(S)-11]", "α2A (adrenergic receptor) (Homo sapiens, UniProt P08913)", "pIC50", "< 5.00"),
]

====

target.or.system: Adenosine receptor A3 (Homo sapiens)
Sequence (P0DMS8 whole entry): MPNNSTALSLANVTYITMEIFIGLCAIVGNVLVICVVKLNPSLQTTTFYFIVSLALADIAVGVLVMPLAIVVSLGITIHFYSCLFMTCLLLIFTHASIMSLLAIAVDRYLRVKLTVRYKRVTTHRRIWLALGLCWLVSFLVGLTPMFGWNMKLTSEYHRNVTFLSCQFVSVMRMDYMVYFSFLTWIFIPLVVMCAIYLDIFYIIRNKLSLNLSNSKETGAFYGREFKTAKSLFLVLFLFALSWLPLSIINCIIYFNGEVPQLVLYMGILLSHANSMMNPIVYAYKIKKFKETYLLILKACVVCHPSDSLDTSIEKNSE

# compound, target.or.system, IC50
data = [
    ("COc1cc(C(F)(F)F)c(OC)cc1[C@@H]1CCCNC1 [(S)-11]", "Adenosine receptor A3 (Homo sapiens)", "> 10 µM"),
]

====

target.or.system: Phorbol ester
assay.explanation: radioligand competition binding, [3H]PDBu
test.conditions: estimated from the % inhibition data

# compound, IC50
measured = [
    ("COc1cc(C(F)(F)F)c(OC)cc1[C@@H]1CCCNC1 [(S)-11]", "> 10 µM"),
]

====

target.or.system: 5-HT4e (Homo sapiens, UniProt Q13639)
Sequence (Q13639 1-378 isoform Q13639-5): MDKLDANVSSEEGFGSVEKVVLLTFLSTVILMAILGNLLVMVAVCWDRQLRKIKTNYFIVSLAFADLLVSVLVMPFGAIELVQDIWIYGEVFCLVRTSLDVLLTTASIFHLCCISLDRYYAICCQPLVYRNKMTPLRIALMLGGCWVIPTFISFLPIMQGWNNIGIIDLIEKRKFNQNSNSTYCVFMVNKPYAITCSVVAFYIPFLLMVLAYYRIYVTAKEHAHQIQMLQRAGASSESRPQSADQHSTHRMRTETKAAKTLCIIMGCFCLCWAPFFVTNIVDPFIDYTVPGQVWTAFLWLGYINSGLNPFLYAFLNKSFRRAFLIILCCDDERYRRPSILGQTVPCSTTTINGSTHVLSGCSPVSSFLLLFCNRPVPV
pIC50: −log10 of the molar value.
outcome.measure: pIC50

# compound, outcome.measure, test.value
measured = [
    ("COc1cc(C(F)(F)F)c(OC)cc1[C@@H]1CCCNC1 [(S)-11]", "pIC50", "< 5.00"),
]

====

target.or.system: 5-HT1B (Homo sapiens)
Construct: Eurofins
Sequence (P28222 whole entry): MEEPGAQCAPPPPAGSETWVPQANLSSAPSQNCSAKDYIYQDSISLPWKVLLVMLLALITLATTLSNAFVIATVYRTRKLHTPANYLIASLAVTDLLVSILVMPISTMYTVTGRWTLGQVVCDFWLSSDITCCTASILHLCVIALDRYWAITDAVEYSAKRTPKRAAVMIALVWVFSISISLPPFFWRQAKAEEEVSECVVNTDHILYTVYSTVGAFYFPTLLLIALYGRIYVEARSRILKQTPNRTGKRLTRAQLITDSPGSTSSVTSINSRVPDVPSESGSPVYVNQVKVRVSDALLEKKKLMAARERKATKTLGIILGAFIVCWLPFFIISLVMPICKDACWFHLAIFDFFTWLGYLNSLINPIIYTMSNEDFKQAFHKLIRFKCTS
assay.explanation: radioligand competition binding, [3H]GR125743
test.conditions: estimated from the % inhibition data
pIC50: −log10 of the molar value.
outcome.measure: pIC50

# molecule, target.or.system, test.value
records = [
    ("COc1cc(C(F)(F)F)c(OC)cc1[C@@H]1CCCNC1 [(S)-11]", "5-HT1B (Homo sapiens)", "5.00 to 6.00"),
]

====

target.or.system: UniProtKB P08588
Sequence (P08588 whole entry): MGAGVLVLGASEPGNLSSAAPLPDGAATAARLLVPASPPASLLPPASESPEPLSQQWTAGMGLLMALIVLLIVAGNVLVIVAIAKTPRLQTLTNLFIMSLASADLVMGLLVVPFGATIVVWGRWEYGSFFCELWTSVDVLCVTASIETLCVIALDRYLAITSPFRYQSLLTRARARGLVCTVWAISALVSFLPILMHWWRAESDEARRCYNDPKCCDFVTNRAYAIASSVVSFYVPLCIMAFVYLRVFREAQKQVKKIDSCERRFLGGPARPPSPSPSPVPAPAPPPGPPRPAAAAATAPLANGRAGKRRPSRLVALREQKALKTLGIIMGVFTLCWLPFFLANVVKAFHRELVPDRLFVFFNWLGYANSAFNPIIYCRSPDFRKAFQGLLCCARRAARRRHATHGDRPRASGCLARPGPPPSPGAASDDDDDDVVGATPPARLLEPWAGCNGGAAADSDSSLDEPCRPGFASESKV
pIC50: −log10 of the molar value.

# molecule, pIC50
data = [
    ("COc1cc(C(F)(F)F)c(OC)cc1[C@@H]1CCCNC1 [(S)-11]", "< 5.00"),
]

====

target.or.system: human 5-HT2AR (Homo sapiens)
Sequence (P28223 whole entry): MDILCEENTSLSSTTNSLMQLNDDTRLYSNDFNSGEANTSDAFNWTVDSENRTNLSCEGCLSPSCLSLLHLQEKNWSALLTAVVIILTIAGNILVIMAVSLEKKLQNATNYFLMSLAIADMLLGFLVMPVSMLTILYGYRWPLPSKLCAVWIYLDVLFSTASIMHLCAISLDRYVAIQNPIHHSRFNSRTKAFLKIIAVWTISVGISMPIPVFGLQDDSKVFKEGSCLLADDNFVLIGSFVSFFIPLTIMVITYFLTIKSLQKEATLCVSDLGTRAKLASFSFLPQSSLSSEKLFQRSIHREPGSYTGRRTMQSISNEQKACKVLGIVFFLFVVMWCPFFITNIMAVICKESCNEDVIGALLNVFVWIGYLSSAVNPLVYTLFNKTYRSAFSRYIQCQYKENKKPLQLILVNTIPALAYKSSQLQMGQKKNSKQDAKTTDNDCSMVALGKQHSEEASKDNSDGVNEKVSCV
assay.explanation: Ca2+/Fluo-4 assay, agonist mode, stable 5-HT2AR-HEK293 cells
test.conditions: Table 2; % of the 5-HT Rmax
Form field: 5-HT2AR Rmax (%) (one value per entry).

# molecule, target.or.system, 5-HT2AR Rmax (%)
rows = [
    ("COc1cc(C(F)(F)F)c(OC)cc1[C@@H]1CCCN(C)C1 [(S)-19]", "human 5-HT2AR (Homo sapiens)", "19%"),
    ("CCOc1cc(C(F)(F)F)c(OC)cc1C1CCCNC1.Cl (stereo not shown) [Compound 24dis]", "human 5-HT2AR (Homo sapiens)", "77%"),
    ("CCOc1cc(C(F)(F)F)c(OCC)cc1C1CCCNC1.Cl (stereo not shown) [Compound 26dis]", "human 5-HT2AR (Homo sapiens)", "69%"),
    ("COc1cc(C(F)(F)F)ccc1C1CCCNC1.Cl (stereo not shown) [Compound 22dis]", "human 5-HT2AR (Homo sapiens)", "80%"),
    ("CCN1CCC[C@@H](c2cc(OC)c(C(F)(F)F)cc2OC)C1 [(S)-20]", "human 5-HT2AR (Homo sapiens)", "44%"),
    ("CCOc1cc(C(F)(F)F)c(OCC)cc1C1CCCNC1.Cl (stereo not shown) [Compound 26eu]", "human 5-HT2AR (Homo sapiens)", "47%"),
    ("COc1cc(C(F)(F)F)ccc1C1CCCNC1.Cl (stereo not shown) [Compound 22eu]", "human 5-HT2AR (Homo sapiens)", "68%"),
    ("COc1cc(C(F)(F)F)c(OC)cc1[C@H]1CCCN(C)C1 [(R)-19]", "human 5-HT2AR (Homo sapiens)", "53%"),
    ("COc1cc(C(F)(F)F)c(OC)cc1CCN [Compound 18, reference compound]", "human 5-HT2AR (Homo sapiens)", "67%"),
    ("CCOc1cc(C(F)(F)F)c(OC)cc1C1CCCNC1.Cl (stereo not shown) [Compound 24eu]", "human 5-HT2AR (Homo sapiens)", "40%"),
]
